TARGET_UNDER_TEST: Cannabinoid receptor 1 (Homo sapiens)
Sequence (P21554 whole entry): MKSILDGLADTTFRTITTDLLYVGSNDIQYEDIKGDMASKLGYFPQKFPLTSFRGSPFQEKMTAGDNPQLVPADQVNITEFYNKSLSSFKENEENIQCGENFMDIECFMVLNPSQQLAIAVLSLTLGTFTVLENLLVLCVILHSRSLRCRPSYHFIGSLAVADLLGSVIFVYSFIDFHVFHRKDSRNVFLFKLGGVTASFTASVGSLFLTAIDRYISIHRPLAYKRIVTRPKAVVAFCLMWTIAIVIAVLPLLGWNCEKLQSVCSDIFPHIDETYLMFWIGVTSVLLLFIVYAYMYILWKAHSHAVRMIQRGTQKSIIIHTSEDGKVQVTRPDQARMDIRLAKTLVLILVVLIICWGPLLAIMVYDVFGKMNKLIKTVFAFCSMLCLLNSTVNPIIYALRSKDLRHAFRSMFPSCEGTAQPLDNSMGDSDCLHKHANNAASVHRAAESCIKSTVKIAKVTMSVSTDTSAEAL
TEST_NAME: Binding affinity to CB1 receptor
Attribute: pKi
As a rule, pKi stands for the negative log10 of the concentration, concentration in M.

# COMPOUND, pKi
data = [
    ("CC1=CC[C@@H]2[C@@H](C1)c1c(O)cc(CCCCCN=[N+]=[N-])cc1OC2(C)C", 7.72),
    ("C=C(C)C1CCC(C)=C[C@H]1c1c(O)cc(C2(CCCCCC)CC2(Br)Br)cc1O (some centres undefined)", 6.72),
    ("CC1=CC[C@@H]2[C@@H](C1)c1c(O)cc(C(C)(C)CCCCOc3ccc(C#N)cc3)cc1OC2(C)C", 8.82),
]

Lab note: `CC1=CC[C@@H]2[C@@H](C1)c1c(O)cc(-c3ccc(C)cc3)cc1OC2(C)C` gave pKi of 7.02

Lab note: `CCCCCC(C)(C)c1cc(O)c2c(c1)OC(C)(C)[C@@H]1CC=C(C)C[C@@H]21` gave pKi of 8.57

Lab note: C=C(C)C1CCC(C)=C[C@H]1c1c(O)cc(C2(CCCCCC)CC2)cc1O (some centres undefined) gave pKi of 7.23

Lab note: `CC1=CC[C@@H]2[C@@H](C1)c1c(O)cc(Oc3ccccc3)cc1OC2(C)C` gave pKi of 6.53

Lab note: `CC1=CC[C@@H]2[C@@H](C1)c1c(O)cc(C(C)(C)CCCCCC#N)cc1OC2(C)C` gave pKi of 9.70

Lab note: `CCCCCCC(=O)c1cc(O)c2c(c1)OC(C)(C)[C@@H]1CC=C(C)C[C@@H]21` gave pKi of 7.66

Lab note: C=C(C)C1CCC(C)=C[C@H]1c1c(O)cc(-c2ccc(C)cc2)cc1O (some centres undefined) gave pKi of 6.20
